FYI, the data here is from PubChem BioAssay (NCI).

Test system: HCT-15 colon
measurement.protocol: NCI tumour cell line growth inhibition, 48 h
readout.label: TGI

compound=Clc1ccc2oc(CCC3CCCCC3)nc2c1 test_system="HCT-15 colon" readout_label=TGI result="69.2 µM"
compound=C=C1C/C(=C/C)C(=O)O[C@@H]2CCN3CC=C(COC(=O)[C@]1(C)O)[C@H]23 test_system="HCT-15 colon" readout_label=TGI result="> 100 µM"
compound=Cc1nc2ccccc2c(=O)n1NC(=S)Nc1ccccc1 test_system="HCT-15 colon" readout_label=TGI result="> 100 µM"

Value of TGI reported for the compound "Cc1ccc(S(=O)(=O)NCCN(CCNS(=O)(=O)c2ccc(C)cc2)S(=O)(=O)c2ccc(C)cc2)cc1" is > 100 µM

Value of TGI reported for the compound "Cc1ccc(Nc2nc(C)c(C(=O)CC(=O)C(=O)Nc3c(C)cccc3C(C)(C)C)s2)cc1" is > 100 µM

---

Tested on: SK-OV-3 ovarian
measurement.protocol: NCI tumour cell line growth inhibition, 48 h
readout.label: TGI (µM)
Could you give me the number in µM? Just the number is fine.

molecule="COc1cccc2c1C(=O)c1c(O)c3c(c(O)c1C2=O)CC(O)(C(=O)CO)CC3OC1CC(N)C(I)C(C)O1 (stereo not given)" readout_label=TGI units_label=µM result=18.6

Value of TGI reported for the molecule CC(C)=NNc1ncnc2c1ncn2C1OC(CO)C(O)C1O (stereo not given) is 4.22

Value of TGI reported for the molecule "c1ccc(CSSSCc2ccccc2)cc1" is 22.9

Value of TGI reported for the molecule "CCC[CH2][Sn]([CH2]CCC)([O]C(=O)c1ccc(C)c(N)c1)[O]C(=O)c1ccc(C)c(N)c1" is 3.24

---

System: HOP-62 NSCLC
measurement.protocol: NCI tumour cell line growth inhibition, 48 h; in the data active = GI50 below about 0.43 µM; inactive = the rest
Choose one outcome from this list and give only that: active, inactive

Known results for compounds:
compound=N.N.NCCCCCCN.O=C([O-])CCl.O=C([O-])CCl.O=C([O-])CCl.O=C([O-])CCl.[Pt+4].[Pt+4] classification=inactive
compound=Cc1cccc(NC2=C(Cl)C(=O)N(Cc3ccc(Cl)cc3)C2=O)c1 classification=inactive
compound="C[C@]12CC[C@H](OC3OC(O)C(O)C(O)C3O)C=C1CCC1C2CC[C@]2(C)[C@@H](c3ccc(=O)oc3)CC[C@]12O (stereo not given in full)" classification=active
compound=Oc1c(Cl)cc(Cl)c2ccc(Cn3cc(-c4cc(F)cc(F)c4)nn3)nc12 classification=inactive

Continue with the compound presented below.
# fetch the recorded call for "COc1ccc2c(c1OC)CO[C@@H]2[C@H]1c2c(c(Br)c3c(c2OC)OCO3)CCN1C" here inactive

---

Below, each entry is listed alongside its reported TGI.
Test system: HL-60(TB) leukemia
measurement.protocol: NCI tumour cell line growth inhibition, 48 h
Could you give me the number in µM? Just the number is fine.

# annotated cases, reported TGI shown
compound="CCCCOC(=O)NC(c1ccccc1)C(O)C(=O)OC1C[C@@]2(O)C(OC(=O)c3ccccc3)C3[C@](C)(C(=O)[C@H](OC(C)=O)C(=C1C)C2(C)C)[C@@H](O)C[C@H]1OC[C@@]31OC(C)=O (some centres undefined)" readout_label=TGI units_label=µM result=0.00741
compound="COc1ccc(Cc2nc3cc([N+](=O)[O-])ccc3n2C[C@@H]2CCCN3CCCCC23)cc1 (some centres undefined)" readout_label=TGI units_label=µM result=19
compound=Cc1ccc(C)c(COc2cc(NC(=O)c3ccc4c(c3)OCO4)ccc2N(C)S(C)(=O)=O)c1 readout_label=TGI units_label=µM result=0.489
compound=CC(=O)Nc1ccc(NNc2cc(=O)n(C)c(=O)[nH]2)cc1 readout_label=TGI units_label=µM result=6.98
compound=CCc1c(C)[nH]c2c1/C(=N/N=C1\CCCc3[nH]c(C)c(CC)c31)CCC2 readout_label=TGI units_label=µM result=36.4

Value of TGI reported for the compound COC(=O)C(C/C=C(\C)c1ccccc1)C(C)=O (centres undefined) is 53.6

Value of TGI reported for the compound "Cc1cc(Nc2ncc(F)c(N[C@H]3[C@@H](C(N)=O)[C@@H]4C=C[C@H]3C4)n2)ccc1N1CCN(C)CC1" is 11.4

Value of TGI reported for the compound "CC/C=C\C/C=C\C[C@H]1C/C=C2/C(=O)C=C[C@@H]2C/C=C\CCC(=O)O1" is 3.14

---

System: MOLT-4 leukemia
measurement.protocol: NCI tumour cell line growth inhibition, 48 h; in the data active = GI50 below about 0.43 µM; inactive = the rest
Choose one outcome from this list and give only that: T = active, F = inactive

Known results for compounds:
compound=COc1cnc2c(c1)C(=O)c1c-2n(CCCBr)c(=O)c2cc([N+](=O)[O-])ccc12 test_system="MOLT-4 leukemia" classification=T
compound=Cn1cc(C2=C(c3c4n(c5ccccc35)CCN(C(N)=S)C4)C(=O)NC2=O)c2ccccc21 test_system="MOLT-4 leukemia" classification=F
compound="COCCNCCc1cccc(Nc2ncc3c(n2)-c2ccccc2C(c2ccccc2F)C3)c1 (centres undefined)" test_system="MOLT-4 leukemia" classification=F
compound=O=C1Nc2ccccc2C1(c1c[nH]c2ccccc12)c1c[nH]c2ccccc12 test_system="MOLT-4 leukemia" classification=F
compound="CC(=O)OC1Oc2ccc(C)cc2-c2oc(=O)c(-c3cc4ccccc4oc3=O)cc21 (centres undefined)" test_system="MOLT-4 leukemia" classification=F

# fetch the recorded call for "CC(=O)Nc1ccc2c(C3=C(c4cn(C)c5ccccc45)C(=O)NC3=O)cn(C)c2c1" here F

# fetch the recorded call for "Cn1c(-c2c(N)n(Cc3ccc(C(F)(F)F)cc3)c3nc(C#N)c(C#N)nc23)nc2ccccc21" here F

# fetch the recorded call for "COc1cc(-c2nn(-c3ccc(NC(=O)NCCCNC(=O)c4ccccc4)cc3)cc2-c2ccncc2)ccc1Cl" here F

# fetch the recorded call for "COc1cc2c(cc1OCCCNC(=O)/C=C1/C[C@H]3C=Nc4cc(OCc5ccccc5)c(OC)cc4C(=O)N3C1)NC(=O)[C@@H]1CCCN1C2=O" here F

---

Tested on: UO-31 renal
measurement.protocol: NCI tumour cell line growth inhibition, 48 h; in the data active = GI50 below about 0.43 µM; inactive = the rest
Choose one outcome from this list and give only that: active, inactive

molecule="COc1cc(C(C)c2ccc3c(ccn3C)c2)cc(OC)c1OC (stereo not drawn)" classification=active
molecule=COc1cc(NC(=O)c2ccc(C(F)(F)F)nc2Nc2ccc(Cl)cc2C)cc(OC)c1OC classification=inactive

Continue with the molecule presented below.
# fetch the recorded call for "O=[N+]([O-])c1ccc2scc3c4ccccc4nc-3c2c1" here inactive

---

System: A549 NSCLC
measurement.protocol: NCI tumour cell line growth inhibition, 48 h
readout.label: TGI

compound=Nc1c(C(=O)Nc2ccccn2)sc2nc3c(cc12)CCCCC3 readout_label=TGI result="> 50 µM"
compound=COc1cc(CCCl)c(CC2=NCCc3cc(OC)c(OC)cc32)cc1OC readout_label=TGI result="> 100 µM"
compound="COc1cccc2c1C(=O)c1c(O)c3c(c(O)c1C2=O)CC(O)(C(=O)CO)CC3OC1CC(N)C(I)C(C)O1 (configuration not stated)" readout_label=TGI result="> 55.1 µM"
compound="CCC1([N+](=O)[O-])CC2C=CC1C2 (configuration not stated)" readout_label=TGI result="> 100 µM"
compound="O=C1OC(CC(=O)c2ccccc2Cl)C(Cl)=C1Cl (configuration not stated)" readout_label=TGI result="> 100 µM"

Value of TGI reported for the compound C=CCCC1CCCCC/C1=N\N(C)C (configuration not stated) is > 100 µM

Value of TGI reported for the compound "O=C1c2ccc3cc(CCl)cc(O)c3c2C(=O)c2cccc(O)c21" is > 10 µM

Value of TGI reported for the compound "CN(C)CCNC(=O)c1cnn(C)c1[N+](=O)[O-]" is > 100 µM

Value of TGI reported for the compound "O=S(=O)(O)c1ccc(N=Nc2ccc(N=Nc3c(O)c(S(=O)(=O)O)cc4cc(S(=O)(=O)O)ccc34)cc2)cc1" is > 100 µM

Value of TGI reported for the compound CN1C(=O)N(C)C(N2CCCC2)c2c1nc1ccccn1c2=O (configuration not stated) is > 100 µM

Value of TGI reported for the compound "Cn1c(=O)c2c(ncn2Cc2ccc(O)c([N+](=O)[O-])c2)n(C)c1=O" is > 100 µM

Value of TGI reported for the compound "O=C(Nc1ccc(Oc2cccc(Cl)c2)c(Cl)c1)c1cnccn1" is > 50 µM

Value of TGI reported for the compound "O=[N+]([O-])c1ccc2scc3c4ccccc4nc-3c2c1" is 3.85 µM

Value of TGI reported for the compound "CCC(=C/[C@H](C)C/C=C/C(C)=C/[C@@H](C)C(=O)[C@@H](C)[C@H](O)[C@@H](C)CC)/C=C/[C@@H]1OC(=O)C=C[C@@H]1C" is 7.02 µM

Value of TGI reported for the compound "Oc1ccc(CCl)c2cccnc12" is > 100 µM

Value of TGI reported for the compound "CCOc1ccc2nc3cc(N=Nc4ccc(N)nc4N)ccc3c(N)c2c1" is > 47.9 µM

Value of TGI reported for the compound "FC(F)(F)CNc1nccc(-c2cnn3ncccc23)n1" is > 25 µM

Value of TGI reported for the compound "Cn1c(/C=C/CO)c(CO)c2c1C(=O)C=C(N1CC1)C2=O" is < 0.01 µM

Value of TGI reported for the compound "COc1cnc2c(c1)C(=O)c1c-2n(CCCBr)c(=O)c2cc([N+](=O)[O-])ccc12" is 6.85 µM

Value of TGI reported for the compound COc1ccc2c3c1O[C@H]1C(=O)C=CC4(n5[nH]c(=O)n(-c6ccccc6)c5=O)C(C2)N(C)CCC314 (some centres not stated) is > 100 µM

Value of TGI reported for the compound "Nc1ccc2c(c1)Cc1ccccc1-2" is > 100 µM

Value of TGI reported for the compound "[N-]=[N+]=Nc1ccc2c(c1)Sc1ccccc1N2CCCCN1CCN(Cc2ccc(C(=O)c3ccccc3)cc2)CC1" is > 100 µM
